target_under_test: T1, monkey LAG-3 on cells (HEK293-cLAG-3 stable cell line) (monkey, UniProt P18627 24-525 (human entry))
T1 construct: Full-length monkey (Chinese monkey) LAG-3 gene expressed on HEK293 cells
T1 chain: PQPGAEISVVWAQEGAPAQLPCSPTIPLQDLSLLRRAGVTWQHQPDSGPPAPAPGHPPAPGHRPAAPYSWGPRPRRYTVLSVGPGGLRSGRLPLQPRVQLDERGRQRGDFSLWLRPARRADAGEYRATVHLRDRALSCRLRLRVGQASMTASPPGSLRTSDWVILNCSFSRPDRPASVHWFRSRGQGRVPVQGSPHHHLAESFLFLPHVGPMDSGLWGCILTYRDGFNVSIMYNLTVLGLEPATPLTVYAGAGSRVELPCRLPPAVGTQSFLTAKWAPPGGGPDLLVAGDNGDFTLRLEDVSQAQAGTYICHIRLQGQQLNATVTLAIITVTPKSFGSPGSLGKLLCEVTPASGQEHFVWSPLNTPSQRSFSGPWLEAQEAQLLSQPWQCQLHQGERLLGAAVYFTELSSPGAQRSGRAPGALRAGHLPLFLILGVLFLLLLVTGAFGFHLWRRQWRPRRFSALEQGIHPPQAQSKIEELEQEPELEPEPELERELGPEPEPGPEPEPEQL
experiment: FACS, HEK293-cLAG-3, antibody 0.064 nM
readout_label: Mean fluorescence intensity
Give bare numbers.

Worked examples follow.
409D4E10 mouse-human chimeric antibody (antibody, V domains shown, also called mAb112-409D4E10) VH: QVQLQQSGAELVRPGASVTLSCKASGNTFTDYEMHWVKQTPVHGLEWIGATDPETDNTAYNQKFKGKAILTTDKSSSTAYMELRSLTSEDSAVYYCITSGWNDWGQGTSLTVSS VL: DIKMTQSPSSMYASLGERVTITCKASQDINSYLSWFQQKPGKSPKTLIYRANRLLDGVPSRFSGSGSGQDYSLTISSLEYEDMGIYYCLQYNEFPYTFGGGTKLEIK: 4.42
405B8H3 mouse-human chimeric antibody (antibody, V domains shown, also called mAb103-405B8H3) VH: QVQLQQSGAELVRPGASVTLSCKASGYTFTDYEMHWVKQTPVHGLEWIGATDPETGNSAYNQKFKGKAIMTADKSSSTAYMELRSLTSEDSAVYYCISTGWNDWGQGTSLTVSS VL: DIKMTQSPSSMYASLGERVTITCKASQDINSYLSWFQQKPGKSPKTLIYRADRLLDGVPSRFSGSGSGQDYSLTISSLEYGDMGIYYCLQYDEFPYTFGGGTKLEIK: 4.8
409B11E12 mouse-human chimeric antibody (antibody, V domains shown, also called mAb104-409B11E12) VH: QVQLQQSGAELVRPGASVTLSCKASGYTFTDYEMHWVKQTTVHGLEWIGATDPETSYSAYNQKFKGKAILTADKSSSTAYMELRSLTSEDSAVYYCIATGWNDWGQGTSLTVSS VL: DLKMTQSPSSMYASLGERVTITCKASQDINSYLSWFQQKPGKSPKTLIYRANRLLDGVPSRFSGSGSGQDYSLTISSLEYEDMGIYYCLQYDEFPYTFGGGTKLEIK: 4.95
105F1E10 mouse-human chimeric antibody (antibody, V domains shown, also called mAb009-105F1E10) VH: EVQLQQSGPELVKPGASVKMSCRASGYTFTDFKMHWMKQSHGKSLEWIGYIAPNNGGTAYNQKFRGKATLTVNESSNTAYMELRSLTSEDSAVYYCVDWDDVDYWGQGTTLTVSS VL: DIKMTQSPSSMYASLGERVTITCKASQDINSYLSWFQQKSGKSPKTLIYRANRLVDGVPSRFSGSGSGQDYSLTISSLEYEDMGIYYCLQYVEFPLTFGAGTKLELK: 3.54

Request: What measured Mean fluorescence intensity goes with 556F6B8 mouse-human chimeric antibody (antibody, V domains shown, also called mAb123-556F6B8; 556F8B8) VH: RVQLKQSGPGLVQPSQSLSITCTVSGFSLIKYGVHWVRQSPGEGLEWLGVIWRGGITDYNAAFMSRLSITKDNSKSQVFFKMNSLQADDTAIYYCAKWDGPLAMDYWGQGTSVTVSS VL: DIVMTQSHKFLSTSVGDRVSITCKASQDVGTTVAWYQQKPGQSPKLLIYWASTRHTGVPDRFTGSGSGTDFTLTISNVQSEDLADYFCQQYSSYPYTFGGGTKLEIK ?
Response: 4.45
